# TEST DETAILS: Sensory evaluation of Vermont drink containing the agent
# RUN PARAMETERS: 10 ppb, ten panels
Listed below: Flavor judgment: number of panels who judged acid taste/acid smell quality the highest values for each entry.
Please reply with the value in numeric form only.

Recorded results for 2 compounds are shown here.
CCCCC/C=C/C/C=C/CCC=O [(E,E)-4,7-tridecadienal] :: 0
CCCCC/C=C/C/C=C/C=C/C=O [(E,E,E)-2,4,7-tridecatrienal] :: 0

Let us move to another entry and its Flavor judgment: number of panels who judged acid taste/acid smell quality the highest.
Short answer for CCCCC/C=C\C/C=C\CCC=O [(Z,Z)-4,7-tridecadienal] : Flavor judgment: number of panels who judged acid taste/acid smell quality the highest was 0

---

Listed below: Flavor judgment: number of panels who judged acid taste/acid smell quality the highest values for each entry.
# TEST DETAILS: Sensory evaluation of Vermont drink containing the agent
# RUN PARAMETERS: 0.5 ppt, ten panels
Please reply with the value in numeric form only.

Recorded results for 5 compounds are shown here.
CCCCC/C=C/C/C=C/C=C/C=O [(E,E,E)-2,4,7-tridecatrienal] :: 0
CCCCC/C=C\C/C=C/C=C/C=O [(E,E,Z)-2,4,7-tridecatrienal] :: 0
CCCCC/C=C\C/C=C\C=C\C=O [(E,Z,Z)-2,4,7-tridecatrienal] :: 1
CCCCC/C=C/C/C=C\CCC=O [(Z,E)-4,7-tridecadienal] :: 0
CCCCC/C=C/C/C=C\C=C\C=O [(E,Z,E)-2,4,7-tridecatrienal] :: 0

Short answer for CCCCC/C=C/C/C=C/CCC=O [(E,E)-4,7-tridecadienal] : Flavor judgment: number of panels who judged acid taste/acid smell quality the highest was 0

Short answer for CCCCC/C=C\C/C=C\CCC=O [(Z,Z)-4,7-tridecadienal] : Flavor judgment: number of panels who judged acid taste/acid smell quality the highest was 1

Short answer for CCCCC/C=C\C/C=C/CCC=O [(E,Z)-4,7-tridecadienal] : Flavor judgment: number of panels who judged acid taste/acid smell quality the highest was 0

---

# TEST DETAILS: Sensory evaluation of Vermont drink containing the agent
# RUN PARAMETERS: 1 ppt, ten panels
MEASUREMENT NAME: C: number of panels, acid taste/acid smell slightly unpleasant

Recorded results for 2 compounds are shown here.
CCCCC/C=C\C/C=C/CCC=O [(E,Z)-4,7-tridecadienal] :: 5
CCCCC/C=C/C/C=C/CCC=O [(E,E)-4,7-tridecadienal] :: 5

Short answer for CCCCC/C=C/C/C=C\CCC=O [(Z,E)-4,7-tridecadienal] : C: number of panels, acid taste/acid smell slightly unpleasant was 6

---

# TEST DETAILS: Sensory evaluation of Vermont drink containing the agent
# RUN PARAMETERS: 0.5 ppt, ten panels
MEASUREMENT NAME: N: number of panels, irritation of acid reduced to give a mild acid taste

Recorded results for 6 molecules are shown here.
CCCCC/C=C\C/C=C/CCC=O [(E,Z)-4,7-tridecadienal] :: 0
CCCCC/C=C\C/C=C\CCC=O [(Z,Z)-4,7-tridecadienal] :: 5
CCCCC/C=C\C/C=C/C=C/C=O [(E,E,Z)-2,4,7-tridecatrienal] :: 0
CCCCC/C=C/C/C=C/CCC=O [(E,E)-4,7-tridecadienal] :: 0
CCCCC/C=C/C/C=C\CCC=O [(Z,E)-4,7-tridecadienal] :: 0
CCCCC/C=C/C/C=C/C=C/C=O [(E,E,E)-2,4,7-tridecatrienal] :: 0

Short answer for CCCCC/C=C/C/C=C\C=C\C=O [(E,Z,E)-2,4,7-tridecatrienal] : N: number of panels, irritation of acid reduced to give a mild acid taste was 0

Short answer for CCCCC/C=C\C/C=C\C=C\C=O [(E,Z,Z)-2,4,7-tridecatrienal] : N: number of panels, irritation of acid reduced to give a mild acid taste was 6

---

# TEST DETAILS: Sensory evaluation of Vermont drink containing the agent
# RUN PARAMETERS: 20 ppt, ten panels
Listed below: B: number of panels, acid taste/acid smell slightly strong and slightly cause irritation values for each entry.
Please reply with the value in numeric form only.

Recorded results for 5 compounds are shown here.
CCCCC/C=C\C/C=C/CCC=O [(E,Z)-4,7-tridecadienal] :: 0
CCCCC/C=C\C/C=C/C=C/C=O [(E,E,Z)-2,4,7-tridecatrienal] :: 0
CCCCC/C=C/C/C=C/CCC=O [(E,E)-4,7-tridecadienal] :: 0
CCCCC/C=C\C/C=C\CCC=O [(Z,Z)-4,7-tridecadienal] :: 0
CCCCC/C=C/C/C=C/C=C/C=O [(E,E,E)-2,4,7-tridecatrienal] :: 1

Short answer for CCCCC/C=C/C/C=C\C=C\C=O [(E,Z,E)-2,4,7-tridecatrienal] : B: number of panels, acid taste/acid smell slightly strong and slightly cause irritation was 0

Short answer for CCCCC/C=C\C/C=C\C=C\C=O [(E,Z,Z)-2,4,7-tridecatrienal] : B: number of panels, acid taste/acid smell slightly strong and slightly cause irritation was 0

Short answer for CCCCC/C=C/C/C=C\CCC=O [(Z,E)-4,7-tridecadienal] : B: number of panels, acid taste/acid smell slightly strong and slightly cause irritation was 1

---

# TEST DETAILS: Sensory evaluation of Vermont drink containing the agent
# RUN PARAMETERS: 0.02 ppt, ten panels
# Description: Water was added to a mixture of 10 g of apple-cider vinegar (acetic acid: 4.8%), 3 g of honey, 7 g of fructose-glucose liquid sugar mixed with sugar, 0.02 g of citric acid, 0.002 g of trisodium citrate, and 0.1 g of a Vermont flavor (manufactured by T. Hasegawa Co., Ltd.) to give a total amount of 100 mL. […]
Listed below: A: number of panels, acid taste/acid smell extreme and cause irritation values for each entry.
Please reply with the value in numeric form only.

Recorded results for 6 compounds are shown here.
CCCCC/C=C/C/C=C/CCC=O [(E,E)-4,7-tridecadienal] :: 10
CCCCC/C=C/C/C=C/C=C/C=O [(E,E,E)-2,4,7-tridecatrienal] :: 10
CCCCC/C=C\C/C=C/C=C/C=O [(E,E,Z)-2,4,7-tridecatrienal] :: 10
CCCCC/C=C/C/C=C\C=C\C=O [(E,Z,E)-2,4,7-tridecatrienal] :: 10
CCCCC/C=C\C/C=C\CCC=O [(Z,Z)-4,7-tridecadienal] :: 8
CCCCC/C=C/C/C=C\CCC=O [(Z,E)-4,7-tridecadienal] :: 10

Short answer for CCCCC/C=C\C/C=C\C=C\C=O [(E,Z,Z)-2,4,7-tridecatrienal] : A: number of panels, acid taste/acid smell extreme and cause irritation was 8

Short answer for CCCCC/C=C\C/C=C/CCC=O [(E,Z)-4,7-tridecadienal] : A: number of panels, acid taste/acid smell extreme and cause irritation was 10

---

# TEST DETAILS: Sensory evaluation of Vermont drink containing the agent
# RUN PARAMETERS: 500 ppt, ten panels
MEASUREMENT NAME: Flavor judgment: number of panels who judged acid taste/acid smell quality the highest
Please reply with the value in numeric form only.

Recorded results for 5 molecules are shown here.
CCCCC/C=C\C/C=C\C=C\C=O [(E,Z,Z)-2,4,7-tridecatrienal] :: 0
CCCCC/C=C\C/C=C/CCC=O [(E,Z)-4,7-tridecadienal] :: 0
CCCCC/C=C/C/C=C\C=C\C=O [(E,Z,E)-2,4,7-tridecatrienal] :: 0
CCCCC/C=C\C/C=C/C=C/C=O [(E,E,Z)-2,4,7-tridecatrienal] :: 0
CCCCC/C=C/C/C=C\CCC=O [(Z,E)-4,7-tridecadienal] :: 0

Short answer for CCCCC/C=C\C/C=C\CCC=O [(Z,Z)-4,7-tridecadienal] : Flavor judgment: number of panels who judged acid taste/acid smell quality the highest was 0

Short answer for CCCCC/C=C/C/C=C/CCC=O [(E,E)-4,7-tridecadienal] : Flavor judgment: number of panels who judged acid taste/acid smell quality the highest was 0

Short answer for CCCCC/C=C/C/C=C/C=C/C=O [(E,E,E)-2,4,7-tridecatrienal] : Flavor judgment: number of panels who judged acid taste/acid smell quality the highest was 0

---

Listed below: B: number of panels, acid taste/acid smell slightly strong and slightly cause irritation values for each entry.
# TEST DETAILS: Sensory evaluation of Vermont drink containing the agent
# RUN PARAMETERS: 0.005 ppt, ten panels
Please reply with the value in numeric form only.

Short answer for CCCCC/C=C/C/C=C\C=C\C=O [(E,Z,E)-2,4,7-tridecatrienal] : B: number of panels, acid taste/acid smell slightly strong and slightly cause irritation was 0

Short answer for CCCCC/C=C\C/C=C/CCC=O [(E,Z)-4,7-tridecadienal] : B: number of panels, acid taste/acid smell slightly strong and slightly cause irritation was 0

Short answer for CCCCC/C=C/C/C=C\CCC=O [(Z,E)-4,7-tridecadienal] : B: number of panels, acid taste/acid smell slightly strong and slightly cause irritation was 0

---

# TEST DETAILS: Sensory evaluation of Vermont drink containing the agent
# RUN PARAMETERS: 10 ppb, ten panels
# Description: Water was added to a mixture of 10 g of apple-cider vinegar (acetic acid: 4.8%), 3 g of honey, 7 g of fructose-glucose liquid sugar mixed with sugar, 0.02 g of citric acid, 0.002 g of trisodium citrate, and 0.1 g of a Vermont flavor (manufactured by T. Hasegawa Co., Ltd.) to give a total amount of 100 mL. […]
Listed below: N: number of panels, irritation of acid reduced to give a mild acid taste values for each entry.
Please reply with the value in numeric form only.

CCCCC/C=C\C/C=C/C=C/C=O [(E,E,Z)-2,4,7-tridecatrienal] :: 2
CCCCC/C=C\C/C=C/CCC=O [(E,Z)-4,7-tridecadienal] :: 4
CCCCC/C=C\C/C=C\CCC=O [(Z,Z)-4,7-tridecadienal] :: 2

Short answer for CCCCC/C=C/C/C=C/C=C/C=O [(E,E,E)-2,4,7-tridecatrienal] : N: number of panels, irritation of acid reduced to give a mild acid taste was 2

Short answer for CCCCC/C=C/C/C=C\CCC=O [(Z,E)-4,7-tridecadienal] : N: number of panels, irritation of acid reduced to give a mild acid taste was 3

Short answer for CCCCC/C=C/C/C=C/CCC=O [(E,E)-4,7-tridecadienal] : N: number of panels, irritation of acid reduced to give a mild acid taste was 3

Short answer for CCCCC/C=C/C/C=C\C=C\C=O [(E,Z,E)-2,4,7-tridecatrienal] : N: number of panels, irritation of acid reduced to give a mild acid taste was 2

Short answer for CCCCC/C=C\C/C=C\C=C\C=O [(E,Z,Z)-2,4,7-tridecatrienal] : N: number of panels, irritation of acid reduced to give a mild acid taste was 3
